System: Plasmodium falciparum
assay-protocol: Screen against P. falciparum Asexual Blood Stage (ABS), at 5uM
Format: functional, Dd2
conditions: tested at 5 uM
In all, about 65,000 compounds went through this assay and about 2,100 (3.2%) showed an effect of 50% or more. The median lay at about -52%. The list comes from a sample in which strong results are over-represented; it also holds close analogues and randomly drawn compounds.
endpoint-label: INHIBITION (%)
Write the value in % as a bare number.

Look over these answered cases.
molecule	result-unit	INHIBITION
CN(C)C(=O)N1C[C@H]2CC[C@@H](C1)N(C/C=C/c1ccc(F)cc1)C2	%	57.8
O=C(CCCNCc1ccc(Cl)c2cccnc12)NC1CC1	%	11.3
COc1ccc(CN2C[C@H]3CC[C@](O)(c4ccc(C)cn4)[C@H]3C2)c(F)c1	%	17.3
CCC(=O)N1CCCCC1c1nc(O)c2c(n1)CN(C(C)=O)CC2 (centres undefined)	%	-29.8
COc1cc(CNCc2ccnc(N3CCCCC3)c2)cc(OC)c1	%	61.4

The molecule CC(C1CCN(Cc2ccc(N(C)C)nc2)CC1)N1CCOCC1 (centres undefined) showed INHIBITION equal to -5.43

INHIBITION measured on COc1ccc2ccccc2c1CNCC1CCS(=O)(=O)C1 (centres undefined) = 67.4

====

Tested on: Plasmodium falciparum
assay-protocol: Screen against P. falciparum Asexual Blood Stage (ABS), at 5uM
Assay type: functional, Dd2
conditions: tested at 5 uM
Screen size: about 65,000 compounds; about 2,100 (3.2%) showed an effect of 50% or more. The median lay at about -52%. Many of the other results were omitted from the sample, so strong results are more common in it than they were.
In this section we review reported INHIBITION values for a set of molecules.

Observe how each entry below is paired with its result.
molecule	endpoint-label	observed-result
CC(C)c1nn(C)c(N(C)C)c1CNCc1cccc2cccnc12	INHIBITION	67.5%
CC(C)(C)OC(=O)NCCc1csc(N2CCCC2)n1	INHIBITION	-50.6%
COCC1CN(C(=O)Cc2ccccn2)Cc2ncnn2C1 (configuration not stated)	INHIBITION	-70.5%
CC(C)(C)CN1CCCC12Cc1ccccc1CNC2=O (configuration not stated)	INHIBITION	2.53%
COc1ncccc1CNCc1c(C(C)C)nn(C)c1Cl	INHIBITION	51.7%
CC(C)(C)CC(=O)NCCn1nc(C2CCNC2)c2cccnc21 (configuration not stated)	INHIBITION	-134%
COc1ccc(S(=O)(=O)NC(=O)COc2ccc3c(c2)CCC3)cc1	INHIBITION	-119%
Cc1c(C(=O)O)cnn1-c1ccc(-c2nc(C(C)(C)C)no2)cn1	INHIBITION	-116%

Observed INHIBITION on Plasmodium falciparum, entry O=C(CCN1CCCO1)NC1CCCN(CC2CCCCC2)C1 (configuration not stated) , equals -105%

// returns INHIBITION for `CCc1cc(=O)[nH]c(-n2nc(C3CC3)cc2NC(=O)C2CC2)n1` with Plasmodium falciparum; value = -66.5%

Note to self: INHIBITION of `CC(C)c1nn(C)c(N(C)C)c1CNCc1cccnc1N(C)C` with Plasmodium falciparum was 21%

Noted INHIBITION for `O=C1CO[C@@H]2CN(S(=O)(=O)c3ccc(F)cc3)C[C@H]2N1` , tested on Plasmodium falciparum: -28.2%

====

Test system: Plasmodium falciparum
assay-protocol: Screen against P. falciparum Asexual Blood Stage (ABS), at 5uM
Format: functional, Dd2
conditions: tested at 5 uM
Hit rate of the full screen: of about 65,000 compounds, about 2,100 (3.2%) showed an effect of 50% or more. The median lay at about -52%. The sample holds strong results, similar compounds and a random draw of the others, so the mix is not that of the screen.
// thresholds for INHIBITION classes: 0 (below -20%), 1 (-20% to below 30%), 2 (30% or more)

compound	class-name
N#CCCN(C(=O)CN1CCCC1c1ccsc1)c1ccccc1 (stereo unspecified)	1

Ask: Just checking, what class would you give CC(C)=CCCC1(C)C=Cc2c(cc(C)n(CCC(=O)O)c2=O)O1 (stereo unspecified) here?
Result: 1

Ask: Each compound maps to one class by INHIBITION. Which class for N#CCCN(C(=O)CN1CCCC1Cc1ccccc1)c1ccccc1 (stereo unspecified) ?
Result: 1

Ask: Please indicate the class for COCC1CN(S(=O)(=O)C2CC2)Cc2ncn(CC3CC3)c21 (stereo unspecified) based on its INHIBITION.
Result: 1

Ask: Dear colleague, I would appreciate it if you could identify the bin for `O=S(=O)(C1CC1)N1CCn2cc(CNc3ccccn3)nc2C1` and reply at your convenience.
Result: 0

====

Test system: Plasmodium falciparum
assay-protocol: Screen against P. falciparum Asexual Blood Stage (ABS), at 5uM
Assay type: functional, Dd2
conditions: tested at 5 uM
Hit rate of the full screen: of about 65,000 compounds, about 2,100 (3.2%) showed an effect of 50% or more. The median lay at about -52%. Shown is part of a subset that was picked to be rich in strong results.
Catalogue of INHIBITION readings, one per entry.
Answer as a quantity: numeral, then unit.

compound	INHIBITION
CN(C)c1ncnc2c1CCN(CC1CCOCC1)CC2	-55.1%
CCN1CCN2CCCN(S(=O)(=O)c3ccc(S(C)(=O)=O)cc3)C2C1=O (stereo not given)	20.7%
CN(C)C(=O)CC1CC2(CCN(Cc3ccsc3)CC2)c2ccccc21 (stereo not given)	14.2%
CCN(CC)S(=O)(=O)N1C[C@@H](O)[C@H](Oc2cccc(F)c2)C1	-6.79%
CN(C)c1ccccc1CN1CCCC(N2CCCC2=O)C1 (stereo not given)	-44.5%

For Cc1nccn1CCC1CCCCN1Cc1ccncc1 (stereo not given) the compound record lists INHIBITION as -88.5%

Reported INHIBITION of `COc1ccc(C)cc1NC(=O)Nc1cnc(N2CCCC2)nc1` : -26.2%

Measured INHIBITION of `COc1ccc(NC(=O)c2cnc(N3CCN(C)CC3)nc2C)cc1` : -103%

INHIBITION for CC(=O)N(Cc1noc(C)n1)C1CCN(Cc2cnc(C)s2)C1 (stereo not given) is -55.6%

The reported INHIBITION of the compound `COc1cn(CC(N)=O)c(CSc2nccc(C)n2)cc1=O` was -34.1%

Notebook: Cc1ccc(C(=O)N2CCC(O)(CN3CCc4ccccc4C3)C2)s1 (stereo not given) , INHIBITION read as -64.4%

# INHIBITION of CCN1CCN2CCCN(S(=O)(=O)c3ccc(C)cc3C)C2C1=O (stereo not given) = 64.3%

CC(CNC(=O)c1ccc(=O)[nH]n1)N1CCc2ccccc21 (stereo not given) yielded INHIBITION of -120%

INHIBITION for `CCCOc1ccc(CNc2cncc(-n3cccn3)n2)cc1` is -99.4%

Entry `O=c1ccc(-c2cccs2)nn1CN1CCN(c2ccccn2)CC1` , INHIBITION reported as -115%

INHIBITION for `CN([C@@H]1CC[C@@H](N2CCCC2)[C@@H]1O)S(=O)(=O)c1ccccc1` is 51.6%

// field: INHIBITION; key: CC(C)NC(=O)C1CN(C(=O)N(C)C)CC12CCOCC2 (stereo not given) ; value = -145%

The compound CSCc1ccc(CNC2CCCN(c3ccc(C)nn3)C2)o1 (stereo not given) showed INHIBITION equal to -38.5%

Entry `c1c(CN2CCCC2)nc2n1CCN(C1CCOCC1)C2` — recorded INHIBITION = -103%

c1ccc(N2CCOC3(CCCN(c4ncccn4)C3)C2)nc1 (stereo not given) yielded INHIBITION of -101%

====

Tested on: Plasmodium falciparum
assay-protocol: Screen against P. falciparum Asexual Blood Stage (ABS), at 5uM
Type: functional, Dd2
conditions: tested at 5 uM
In all, about 65,000 compounds went through this assay and about 2,100 (3.2%) showed an effect of 50% or more. The median lay at about -52%. What follows is part of a selection rich in strong results, with near analogues and random picks from the rest.
endpoint-label: INHIBITION (%)
Output spec: scalar in %, unitless text.

molecule	tested-target	INHIBITION (%)
Cc1nn(-c2ccccc2)c(C)c1-c1ccnc(N2CCCNCC2)n1	Plasmodium falciparum	66.9
Cc1cc(N2CCCC2)nc(CNS(=O)(=O)Cc2ccccc2)n1	Plasmodium falciparum	-63.1
COc1cccc(C(=O)N2CC[C@@H]3[C@H](CC2)N(C)CCS3(=O)=O)c1	Plasmodium falciparum	-72.7
C[C@]1(O)CN(CCO)CC[C@@H]1Oc1cccc(F)c1	Plasmodium falciparum	65.2
COc1ccc2c(c1)OCC(CNC1CCc3nc(C)nn3C1)=C2 (stereo not drawn)	Plasmodium falciparum	-98

Now take the following molecule into account.
Entry Cc1nc(SC2CCN(c3sccc3C#N)C2=O)oc1C (stereo not drawn) ; assay system Plasmodium falciparum; INHIBITION recorded at -137
